molecular target: binding partner of C5A (XPA23); test: Biacore K-off

binder: C5A (XPA23) VL S53W (antibody, V domains shown) VH: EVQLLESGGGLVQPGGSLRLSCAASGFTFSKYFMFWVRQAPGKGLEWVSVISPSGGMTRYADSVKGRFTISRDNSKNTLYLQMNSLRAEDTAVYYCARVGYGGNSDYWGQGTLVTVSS VL: DIQMTQSPSSVSASVGDRLTIICRASQDINRWLAWYQQTPGNAPKLLIHSATWLQSGVPSRFSGSGSGTDFTLTINSLQPEDFATYYCQQADSFPLTFGGGTKVEIK
fold difference in affinity vs original [fold]: 1.11
--
binder: C5A (XPA23) VL D92F (antibody, V domains shown) VH: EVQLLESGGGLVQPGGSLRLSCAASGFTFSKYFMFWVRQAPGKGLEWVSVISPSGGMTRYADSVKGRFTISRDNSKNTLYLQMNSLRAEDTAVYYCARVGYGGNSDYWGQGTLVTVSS VL: DIQMTQSPSSVSASVGDRLTIICRASQDINRWLAWYQQTPGNAPKLLIHSATSLQSGVPSRFSGSGSGTDFTLTINSLQPEDFATYYCQQAFSFPLTFGGGTKVEIK
fold difference in affinity vs original [fold]: 0.26
--
binder: C5A (XPA23) VL A51Q (antibody, V domains shown) VH: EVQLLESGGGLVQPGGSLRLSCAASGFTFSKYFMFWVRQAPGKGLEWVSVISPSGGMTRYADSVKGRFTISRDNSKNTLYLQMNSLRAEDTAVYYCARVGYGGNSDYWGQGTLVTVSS VL: DIQMTQSPSSVSASVGDRLTIICRASQDINRWLAWYQQTPGNAPKLLIHSQTSLQSGVPSRFSGSGSGTDFTLTINSLQPEDFATYYCQQADSFPLTFGGGTKVEIK
fold difference in affinity vs original [fold]: 0.24
